- Tested on: CAKI-1
- ASSAY: NCI tumour cell line growth inhibition, 48 h
Activity calls are given as the source filed them. Cut-off read from the data, not from the text of the source: active = GI50 up to about 1.1 µM and inactive = higher.
Task for the reader: assign each of the following molecules its reported GI50.

-- ask Look up and report measured GI50 for this entry: CCOCCOC(=O)C1CCC(=O)N1CN(C(C)=O)c1cc(OC)ccc1OC (stereo not given)
-- reply > 100 µM (inactive)

-- ask Query GI50 for COC(=O)C1Cc2c(n(C)c3ccccc23)C(CCC(=O)O)N1Cc1ccccc1 (stereo not given)
-- reply 37.2 µM (inactive)

-- ask Give reported GI50 value for COC1CCC(=C2C(=O)OC(C)(C)OC2=O)N1 (stereo not given)
-- reply > 100 µM (inactive)

-- ask Give reported GI50 value for COc1ccc(Cc2cc3c(cc2OCC(=O)O)OCO3)cc1
-- reply > 100 µM (inactive)

-- ask Look up and report measured GI50 for this entry: COc1ccc(CC(COS(=O)(=O)c2ccc(C)cc2)NS(=O)(=O)c2ccc(C)cc2)cc1 (stereo not given)
-- reply 17.4 µM (inactive)

-- ask Look up and state reported GI50 for Oc1cccc2ccc(Br)nc12
-- reply > 100 µM (inactive)

-- ask Provide one value: measured GI50 of CC(=O)c1cccn1/C=C(\OC(=O)OC(C)(C)C)c1ccc[nH]1
-- reply 22 µM (inactive)

-- ask Give GI50 for the following molecule: COC(=O)c1c(C(=O)OC)c(-c2ccccc2)n(-c2ccccc2)c(=O)c1-c1ccccc1
-- reply 51.2 µM (inactive)

-- ask Complete the entry with GI50 for CN1C(=O)c2ccccc2OC12C=Cc1ccc(O)cc1O2 (stereo not given)
-- reply 16.1 µM (inactive)

-- ask Retrieve GI50 measured for C=CC(C)(C)N[C@@H](C(=O)N1CCC[C@H]1c1nc(-c2nc(C(=O)OCC=C(C)C)c(C)o2)c(C)o1)C(C)C and print it.
-- reply 35.5 µM (inactive)

----------
Field: GI50. Provide a value for each of the compounds that follow.
- Tested on: 786-0
- ASSAY: NCI tumour cell line growth inhibition, 48 h
Activity calls are given as the source filed them. No stated cut-off is given here; in the data, active = GI50 up to about 1.1 µM and inactive = higher.

-- ask Give the measured GI50 for O=C(CNc1ccccn1)Nn1cnc2ccc(S(=O)(=O)Nc3ccccn3)cc2c1=O
-- reply > 100 µM (inactive)

-- ask Quote GI50 reported for Nc1nc2[nH]cnc2c(=O)[nH]1 please.
-- reply > 100 µM (inactive)

-- ask Note down GI50 recorded for Cc1cc(C2(c3cc(C)c(O)c4ncccc34)OC(=O)c3ccccc32)c2cccnc2c1O
-- reply 0.0178 µM (active)

-- ask Note down GI50 recorded for Nc1nc(N)c2nc(CNc3ccc(C(=O)NC(CCCNC(=O)c4ccccc4C(=O)O)C(=O)O)cc3)cnc2n1 (stereo not given)
-- reply 0.01 µM (active)

-- ask For C=CCNC(=S)NC=C(C(N)=O)C(N)=O , write its GI50.
-- reply > 100 µM (inactive)

----------
- Test system: M14
- ASSAY: NCI tumour cell line growth inhibition, 48 h
Active and inactive are the calls of the source. Cut-off read from the data, not from the text of the source: active = GI50 up to about 1.1 µM and inactive = higher.
Would you mind answering with one of these outcomes? Y for active, N for inactive

-- ask Assay result, entry CC(C)(C)[Si](C)(C)OC1C(=O)C[C@H]2CCCC[C@@H]12 (stereo not given in full) — outcome?
-- reply N

-- ask Field: outcome | Entry: CC1COC(c2cn[nH]c2C(N)=O)C1O (stereo not given)
-- reply N

-- ask Dear all, I need the recorded test outcome for CC(C)CCCC(C)[C@H]1CCC2[C@@H]3CCC4Cc5nc6c(nc5C[C@]4(C)C3CC[C@@]21C)CC1CC[C@@H]2C(CC[C@@]3(C)C2CC[C@@H]3C(C)CCCC(C)C)[C@@]1(C)C6 (stereo not given in full) , thank you.
-- reply N

-- ask What was the test verdict on COC(=O)[C@]12CC[C@H]3CN(C(=O)OCc4ccccc4)[C@H]([C@H]31)[C@H](C(=O)OCC[Si](C)(C)C)N2S(=O)(=O)c1ccc(C)cc1 ?
-- reply N

-- ask Hi, sorry to bother you, what did the test record for O=C(O)C1CC(C2CCCCN2)CN2CCCCC12 (stereo not given) ?
-- reply N

-- ask Could you check what this test reported for COc1cc(CC(=O)c2cc3c(cc2-c2ccccc2)OCO3)cc(OC)c1OC ?
-- reply N

-- ask State the result this test recorded for CC1(C)OP(=O)(O)C=C1Sc1ccc([N+](=O)[O-])cc1[N+](=O)[O-] .
-- reply N

-- ask Please state the recorded outcome for this molecule: O=C1c2ccccc2C(=O)c2c1ccc1c3ccccc3n(-c3ccccc3)c21
-- reply N

-- ask Write down the call the test reported for this molecule. Item: S=C1SCC2CCCN12 (stereo not given)
-- reply N

-- ask Returns: the outcome recorded for CC(=O)O[C@@H]1C[C@@]2(C)[C@@H]3CC=C4[C@@H](C[C@H](O)C(=O)C4(C)C)[C@]3(C)C(=O)C[C@]2(C)[C@H]1[C@@](C)(O)C(=O)/C=C/C(C)(C)OC(C)=O in this assay.
-- reply Y

-- ask Would you mind telling me which call this test gave O=S(=O)(Nc1ccccc1S(=O)(=O)c1ccccc1)c1ccccc1 ?
-- reply N

-- ask How did this test come out for CC(C)CC(NC=O)C(=O)NC(Cc1ccccc1)NC(=O)CNC(=O)C(C)NC(=O)OC(C)(C)C (stereo not given) ?
-- reply N

-- ask Check the results log: what was the call for O=C(CCc1cc(-c2ccco2)n(-c2ccc([N+](=O)[O-])cc2[N+](=O)[O-])n1)Nc1ccccc1 ?
-- reply N

-- ask Record lookup: outcome of this test for N=C(c1ccccc1)N(O)C1CCCCC1 ?
-- reply N

-- ask Please let me know the test result on file for C=CCSc1ncnc2c1ncn2C1OC(CO)C(O)C1O (stereo not given) .
-- reply N

-- ask Which outcome did this test record for the molecule O=C(O)C1CCCN1Cc1ccc2c(c1)OCO2 (stereo not given) ?
-- reply N

-- ask Give the logged outcome of this assay for the following molecule: Cc1cc(Oc2cnc(=O)[nH]c2)cs1
-- reply N

-- ask Returns: the outcome recorded for CN(C)C(=S)C(Cl)(c1ccccc1)c1ccccc1 in this assay.
-- reply N

-- ask Hi team, can someone confirm the assay call for O=C(CCCCCCCCCCc1ccccc1)C1=C(O)CCCC1=O ?
-- reply N

-- ask Please indicate how the test categorized CS(=O)(=O)c1nc(Cl)c(Cl)c(C#N)c1Cl .
-- reply N

----------
- Test system: CCRF-CEM
- ASSAY: NCI tumour cell line growth inhibition, 48 h
Calls of active or inactive are those of the source. Rule as the data show it: active = GI50 up to about 1.1 µM and inactive = higher.
Parameter call: string, one of true (1) (active), false (0) (inactive)

-- ask Dear all, I need the recorded test outcome for CC(C)OC(=O)Nc1c([N+](=O)[O-])cc(C(F)(F)F)cc1[N+](=O)[O-] , thank you.
-- reply false (0)

-- ask Outcome? O=c1[nH]cc(/N=C/c2cc(Cl)cc(Cl)c2O)c(=O)[nH]1
-- reply false (0)

-- ask Per the records of this test, what outcome belongs to O=C1C2=C(c3ccccc31)C(c1ccccc1Cl)N1C(=O)CCSC1=N2 (stereo not given) ?
-- reply false (0)

-- ask Which outcome was entered for the compound CCCCC(=O)OC[n+]1ccc2c(C)c3[nH]c4ccccc4c3c(C)c2c1 in this test?
-- reply true (1)

-- ask Which outcome was entered for the compound Nc1nc(Nc2ccccc2)sc1C(=O)c1ccc(Cl)cc1 in this test?
-- reply false (0)

-- ask How was CN(C)CCNC(=O)c1cccc2nc3c(nc12)-c1ccccc1C3=O classified in this test?
-- reply false (0)

-- ask Assay result, entry COc1ccc2c(c1)C(=O)CCc1cc(OC)c(OC)c(OC)c1-2 — outcome?
-- reply true (1)

-- ask I would be grateful if you could indicate the recorded call for CCCC/C=C1\CCC(CN2CCCCC2)C1=O (stereo not given) .
-- reply false (0)

-- ask Hey, what did the test say about COc1ccc(C2C(C(=O)c3ccccc3)=C(O)C(O)(CC(=O)c3ccccc3)N2c2ccc(OC)cc2)cc1 (stereo not given) ?
-- reply false (0)

-- ask What was the test verdict on CCOC(=O)C/N=c1\nc(SC)sc2c(C(=O)OCC)nc(Sc3ccccc3)n12 ?
-- reply false (0)

----------
Task for the reader: assign each of the following compounds its reported GI50.
- Tested on: NCI-H23
- ASSAY: NCI tumour cell line growth inhibition, 48 h
Activity calls are given as the source filed them. Cut-off read from the data, not from the text of the source: active = GI50 up to about 1.1 µM and inactive = higher.

-- ask Enter GI50 (test system NCI-H23) for C=CCOC(=O)CC[C@H](NC(=O)[C@@H](CCC(F)(F)F)Cc1ccc(O)cc1)C(=O)OCC=C
-- reply 38.5 µM (inactive)

-- ask Quote NCI-H23 GI50 for entry COc1ccc(C(C2=C(C)C(=O)c3ccccc3C2=O)c2ccc(C(C)C)cc(=O)c2O)cc1 (stereo not drawn) .
-- reply 3.51 µM (inactive)

-- ask Report GI50 from NCI-H23 testing of CC1COC(c2cn[nH]c2C(N)=O)C1O (stereo not drawn)
-- reply > 100 µM (inactive)

-- ask For NCI-H23, give GI50 of the listed compound: NNC(=O)c1c(-c2cccnc2)cnc2ccccc12
-- reply > 100 µM (inactive)

-- ask Please indicate recorded GI50 of O=C1C2=C(c3ccccc31)C(c1ccccc1Cl)N1C(=O)CCSC1=N2 (stereo not drawn) measured with NCI-H23.
-- reply 76 µM (inactive)

-- ask GET GI50 | system: NCI-H23 | item: CC(C)[C@@H]1ON1C(C)c1ccccc1 (stereo partly drawn)
-- reply > 100 µM (inactive)

-- ask Identify measured GI50 obtained with NCI-H23 for COc1ccc(C2SCC(=O)N2c2ccc(-c3ccc(-n4c(-c5ccccc5)nc5ccccc5c4=O)cc3)cc2)cc1OC (stereo not drawn) .
-- reply > 100 µM (inactive)

-- ask Specify the recorded GI50 for COCCN(C(=O)c1ccccc1)C1CCC2(SCCS2)c2[nH]c3ccccc3c21 (stereo not drawn) , system: NCI-H23.
-- reply 51.5 µM (inactive)

Source: ChEMBL document CHEMBL1201862
